# targetSystem: recombinant human HDAC6 (Homo sapiens (Human), UniProt Q9UBN7)
# Sequence (Q9UBN7 whole entry): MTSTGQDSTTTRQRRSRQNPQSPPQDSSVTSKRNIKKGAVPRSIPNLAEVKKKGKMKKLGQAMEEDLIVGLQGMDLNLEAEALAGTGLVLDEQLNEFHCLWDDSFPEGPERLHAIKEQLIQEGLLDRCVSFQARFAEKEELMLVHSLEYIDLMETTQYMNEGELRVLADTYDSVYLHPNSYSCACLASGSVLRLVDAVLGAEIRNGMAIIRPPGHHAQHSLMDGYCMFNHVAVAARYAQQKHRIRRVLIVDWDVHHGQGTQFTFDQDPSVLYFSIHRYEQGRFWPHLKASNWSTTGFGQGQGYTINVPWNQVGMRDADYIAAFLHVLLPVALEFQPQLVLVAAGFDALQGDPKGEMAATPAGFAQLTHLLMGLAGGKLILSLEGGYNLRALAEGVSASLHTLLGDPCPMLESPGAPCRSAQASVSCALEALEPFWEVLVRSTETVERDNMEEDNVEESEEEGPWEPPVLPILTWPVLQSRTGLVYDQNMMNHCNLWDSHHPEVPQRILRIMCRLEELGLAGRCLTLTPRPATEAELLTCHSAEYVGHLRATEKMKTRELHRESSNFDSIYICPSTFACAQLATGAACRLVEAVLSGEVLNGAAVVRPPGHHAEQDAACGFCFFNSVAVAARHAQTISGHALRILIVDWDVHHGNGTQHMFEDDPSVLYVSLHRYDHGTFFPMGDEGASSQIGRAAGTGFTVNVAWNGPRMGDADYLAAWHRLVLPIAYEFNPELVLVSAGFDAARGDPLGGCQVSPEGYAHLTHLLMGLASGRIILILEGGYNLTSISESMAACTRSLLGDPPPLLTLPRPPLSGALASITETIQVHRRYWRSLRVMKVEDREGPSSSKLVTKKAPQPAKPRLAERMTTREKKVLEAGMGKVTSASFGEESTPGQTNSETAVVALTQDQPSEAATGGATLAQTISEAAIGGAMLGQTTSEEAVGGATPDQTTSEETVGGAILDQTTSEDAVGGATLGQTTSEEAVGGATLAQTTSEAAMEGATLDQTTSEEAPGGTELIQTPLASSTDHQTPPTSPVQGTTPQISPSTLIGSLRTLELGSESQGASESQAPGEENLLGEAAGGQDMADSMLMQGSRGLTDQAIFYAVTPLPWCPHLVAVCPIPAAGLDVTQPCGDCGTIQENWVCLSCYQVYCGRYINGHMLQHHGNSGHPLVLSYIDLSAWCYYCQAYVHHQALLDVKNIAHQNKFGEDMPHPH
# experimentalProtocol: Enzymatic screening, HDAC6 inhibition (fluorogenic FdL_G substrate)
// NB: equality with 0.06 µM counts as No; only IC50 strictly below is Yes

{"molecule": "Nc1nccc2cc(-c3nnn(Cc4ccc(-c5nnc(C(F)F)o5)cc4F)n3)ccc12", "targetSystem": "recombinant human HDAC6 (Homo sapiens (Human), UniProt Q9UBN7)", "answerLabel": "Yes"}
{"molecule": "FC(F)c1nnc(-c2ccc(Cn3cc(-c4ccc5nc(N6CCCC6)[nH]c5c4)nn3)cc2)o1", "targetSystem": "recombinant human HDAC6 (Homo sapiens (Human), UniProt Q9UBN7)", "answerLabel": "No"}
{"molecule": "O=C1Nc2ccc(-c3cn(Cc4ccc(-c5nnc(C(F)F)o5)cn4)nn3)cc2C12CCNC2 (single isomer, unassigned) [compound 274]", "targetSystem": "recombinant human HDAC6 (Homo sapiens (Human), UniProt Q9UBN7)", "answerLabel": "Yes"}
{"molecule": "FC(F)c1nnc(-c2ccc(Cn3cc(-c4ccccc4)nn3)cc2)o1", "targetSystem": "recombinant human HDAC6 (Homo sapiens (Human), UniProt Q9UBN7)", "answerLabel": "No"}
{"molecule": "O=C(Nc1cccc(-c2nnn(Cc3ccc(-c4nnc(C(F)F)o4)cc3)n2)c1)N1CCOCC1", "targetSystem": "recombinant human HDAC6 (Homo sapiens (Human), UniProt Q9UBN7)", "answerLabel": "Yes"}
{"molecule": "CC(=O)Nc1cc(-c2nnn(Cc3ccc(-c4nnc(C(F)F)o4)cc3)n2)cnc1C", "targetSystem": "recombinant human HDAC6 (Homo sapiens (Human), UniProt Q9UBN7)", "answerLabel": "Yes"}
{"molecule": "CN(Cc1ccc(-c2nc(Cc3c(F)cc(-c4nnc(C(F)F)o4)cc3F)no2)cc1)C(=O)C(F)F", "targetSystem": "recombinant human HDAC6 (Homo sapiens (Human), UniProt Q9UBN7)", "answerLabel": "No"}
{"molecule": "O=C1NCc2ccc(-c3cnn(Cc4ccc(-c5nnc(C(F)F)o5)cc4)c3)cc21", "targetSystem": "recombinant human HDAC6 (Homo sapiens (Human), UniProt Q9UBN7)", "answerLabel": "No"}

====

# targetSystem: recombinant human HDAC6 (Homo sapiens (Human))
# experimentalProtocol: Enzymatic screening, HDAC6 inhibition (fluorogenic FdL_G substrate)
The following molecules are shown together with reported IC50 values.

{"smiles": "Nc1nc2ccc(-c3cn(Cc4ccc(-c5nnc(C(F)F)o5)cc4F)nn3)cc2s1", "IC50": "24 nM"}
{"smiles": "Nc1ncnc2cc(-c3cn(Cc4ccc(-c5nnc(C(F)F)o5)c(F)c4)nn3)ccc12", "IC50": "27 nM"}
{"smiles": "O=C(Nc1cccc(-c2cn(Cc3c(F)cc(-c4nnc(C(F)F)o4)cc3F)nn2)c1)N1CCOCC1", "IC50": "32 nM"}
{"smiles": "Nc1ccc(-c2cn(Cc3ncc(-c4nnc(C(F)F)o4)cn3)nn2)cn1", "IC50": "48 nM"}
{"smiles": "O=C(Nc1cc(-c2nnn(Cc3ccc(-c4nnc(C(F)F)o4)cc3)n2)ccc1O)N1CCOCC1", "IC50": "7 nM"}
{"smiles": "CCNc1ccc2cc(-c3nnn(Cc4cc(F)c(-c5nnc(C(F)F)o5)cc4F)n3)ccc2n1", "IC50": "420 nM"}
{"smiles": "Cn1c(N)nc2cc(-c3cn(Cc4ccc(-c5nnc(C(F)F)o5)cc4)cn3)ccc21", "IC50": "27 nM"}
{"smiles": "NC(=O)c1cc(-c2nnn(Cc3ccc(-c4nnc(C(F)F)o4)cc3)n2)ccc1N", "IC50": "30 nM"}
{"smiles": "CN(Cc1ccncc1)Cc1ccc(-c2cn(Cc3ccc(-c4nnc(C(F)F)o4)cc3)nn2)cc1", "IC50": "282 nM"}
{"smiles": "CCNc1cccc(-c2cn(Cc3ccc(-c4nnc(C(F)F)o4)cc3)nn2)c1", "IC50": "92 nM"}
{"smiles": "O=C(Nc1ccc(-c2nnn(Cc3ncc(-c4nnc(C(F)F)o4)cn3)n2)cn1)C(F)F", "IC50": "33 nM"}
{"smiles": "Fc1cc(-c2nnc(C(F)F)o2)ccc1Cc1nc(-c2ccc(NC3=NCCN3)cc2)no1", "IC50": "12 nM"}
{"smiles": "CNC(=O)Nc1ccc(-c2nnc(Cc3ccc(-c4nnc(C(F)F)o4)cc3)o2)cn1", "IC50": "81 nM"}
{"smiles": "Nc1ccc(-c2nnn(Cc3ccc(-c4nnc(C(F)F)o4)cc3)n2)cn1", "IC50": "28 nM"}
{"smiles": "Fc1c(Cn2cnc(-c3ccc(NC4=NCCN4)cc3)c2)ccc(-c2nnc(C(F)F)o2)c1F", "IC50": "11 nM"}
{"smiles": "Cc1ncccc1-c1cn(Cc2c(F)cc(-c3nnc(C(F)F)o3)cc2F)nn1", "IC50": "41 nM"}

====

Catalogue of pIC50 readings, one per entry.
# targetSystem: recombinant human HDAC1 (Homo sapiens (Human))
# Sequence (Q13547 whole entry): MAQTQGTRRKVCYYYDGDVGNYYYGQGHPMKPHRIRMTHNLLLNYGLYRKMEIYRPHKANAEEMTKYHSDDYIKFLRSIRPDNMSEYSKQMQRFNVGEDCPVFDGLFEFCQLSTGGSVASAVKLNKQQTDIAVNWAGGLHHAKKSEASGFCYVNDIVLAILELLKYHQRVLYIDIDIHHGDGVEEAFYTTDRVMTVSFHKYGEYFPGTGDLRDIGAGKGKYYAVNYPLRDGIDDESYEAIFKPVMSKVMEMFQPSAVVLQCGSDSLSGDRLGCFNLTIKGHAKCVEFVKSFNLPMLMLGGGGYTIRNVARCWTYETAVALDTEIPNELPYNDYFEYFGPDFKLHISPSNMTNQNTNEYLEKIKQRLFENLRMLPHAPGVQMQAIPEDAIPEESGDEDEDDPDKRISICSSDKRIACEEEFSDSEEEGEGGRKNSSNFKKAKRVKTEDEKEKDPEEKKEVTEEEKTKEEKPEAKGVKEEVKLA
# experimentalProtocol: Enzymatic screening, HDAC1 inhibition (fluorogenic FdL_G substrate)
pIC50: −log10 of the molar value.
valueType: pIC50

{"molecule": "CN1CC(C(=O)Nc2cccc(-c3cn(Cc4c(F)cc(-c5nnc(C(F)F)o5)cc4F)nn3)c2)C1", "endpointValue": "< 3.70"}
{"molecule": "Fc1c(Cn2nnc(-c3cccc(-c4nc5c([nH]4)CCNC5)c3)n2)ccc(-c2nnc(C(F)F)o2)c1F", "endpointValue": "< 3.00"}
{"molecule": "Cc1ncccc1-c1cn(Cc2c(F)cc(-c3nnc(C(F)F)o3)cc2F)nn1", "endpointValue": "< 3.70"}
{"molecule": "CC[C@H](c1ccc(-c2nnc(C(F)F)o2)cc1)n1cc(-c2cccc(NC(=O)N3CCOCC3)c2)nn1 (stereo in doubt)", "endpointValue": "< 3.70"}

====

# targetSystem: recombinant human HDAC1 (Homo sapiens (Human))
# experimentalProtocol: Enzymatic screening, HDAC1 inhibition (fluorogenic FdL_G substrate)
Listed here: items and their measured IC50.
valueType: IC50

{"compound": "Cn1c(N)nc2cc(-c3nnn(Cc4ncc(-c5nnc(C(F)F)o5)cc4F)n3)ccc21 [compound 370]", "endpointValue": "> 1000 µM"}
{"compound": "O=C1Nc2ccc(-c3cn(Cc4ccc(-c5nnc(C(F)F)o5)cc4)nn3)cc2NC12CCNCC2 [compound 271]", "endpointValue": "> 200 µM"}
{"compound": "O=C(Nc1cc(-c2nnn(Cc3c(F)cc(-c4nnc(C(F)F)o4)cc3F)n2)ccc1OC(=O)N1CCOCC1)N1CCOCC1 [compound 196]", "endpointValue": "> 200 µM"}
{"compound": "COc1ncccc1-c1cn(Cc2ccc(-c3nnc(C(F)F)o3)cc2)nn1 [compound 131]", "endpointValue": "> 200 µM"}
{"compound": "Nc1cccc(-c2cn(Cc3c(F)cc(-c4nnc(C(F)F)o4)cc3F)nn2)c1 [compound 297]", "endpointValue": "65 µM"}
{"compound": "Nc1cccc(-c2cn(Cc3ccc(-c4nnc(C(F)F)o4)cc3)nn2)c1 [compound 192]", "endpointValue": "> 200 µM"}
{"compound": "Nc1ccc(-c2cn(C(CO)c3ccc(-c4nnc(C(F)F)o4)cc3)nn2)cn1 (stereo not shown) [Compd. 94]", "endpointValue": "> 200 µM"}
{"compound": "Nc1ccc(-c2cn(Cc3ccc(-c4nnc(C(F)F)o4)c(F)c3F)nn2)cn1 [compound 21]", "endpointValue": "> 200 µM"}
{"compound": "O=C(c1cccc(-c2nnn(Cc3ccc(-c4nnc(C(F)F)o4)cn3)n2)c1)N1CCOCC1 [compound 69]", "endpointValue": "> 200 µM"}
{"compound": "CN1CCN(C(=O)Nc2cccc(-c3cn(Cc4ccc(-c5nnc(C(F)F)o5)cn4)nn3)c2)CC1 [Compd. 51]", "endpointValue": "> 200 µM"}
{"compound": "FC(F)c1nnc(-c2ccc(Cn3cc(-c4ccc(NC5=NCCN5)cc4)cn3)cc2)o1 [compound 269]", "endpointValue": "> 200 µM"}
{"compound": "Nc1ccc(-c2cn(Cc3ncc(-c4nnc(C(F)F)o4)cn3)nn2)cn1 [compd. 125]", "endpointValue": "> 200 µM"}
{"compound": "CC(=O)c1cccc(-c2nnn(Cc3ccc(-c4nnc(C(F)F)o4)cc3)n2)c1 [compound 140]", "endpointValue": "> 200 µM"}
{"compound": "Nc1nc2cc(-c3cn(Cc4ccc(-c5nnc(C(F)F)o5)cn4)nn3)ccc2s1 [Compd. 3]", "endpointValue": "> 200 µM"}
{"compound": "Nc1ncnc2sc(-c3cn(Cc4ccc(-c5nnc(C(F)F)o5)cc4F)nn3)cc12 [compound 416]", "endpointValue": "1000 µM"}
{"compound": "CNc1ccc2cc(-c3nnn(Cc4c(F)cc(-c5nnc(C(F)F)o5)cc4F)n3)ccc2n1 [compound 388]", "endpointValue": "1000 µM"}
